FYI, the data here is from the supplement of paper PMC6555819.

System: VDR homodimer (NR concentration 270 nM)
RUN DESCRIPTION: PBM binding z-score (relative to random genomic background probes); higher = stronger binding; sequences stand for … in GC…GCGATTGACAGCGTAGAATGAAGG
Please enter YES where PBM binding z-score is greater than or equal to 0.05, and NO where it is lower.

{"columns": ["SEQUENCE ENTRY", "DISCRETE LABEL"],
 "data": [
  ["GCGACTGGGGCATCAGCAGGTTCCCATAACTTAA", "NO"],
  ["CCATACAGGTGAAAGGTAACTCAGTCTGGTACGC", "NO"],
  ["AGAATGACGTTATACGTAGATCAGGGAAGAAAGT", "NO"],
  ["ATCGAAAGGTCGACGAGATGAGTATACACCGTTT", "YES"],
  ["TAGCCTAGGTCAGATCGGGCCCGTATACGCTATA", "NO"],
  ["CGTCCAAGGGCAAAGGTCAGTGAAGAGATGACGG", "YES"],
  ["ATACCAAGGTGATCGTGAGGTCGTTTATACTAAC", "YES"],
  ["GCTAGTTGGTCAGCAAAAGGTCACACACCGGTCG", "YES"],
  ["GGAACGAGGGCAAAGTTGATATCATCTGTCGACG", "YES"],
  ["TCAGTCAGGTGAAGGTAACTCAGGTACGCAGTCG", "NO"],
  ["AATACAGGGTCATCGCAGGCCAGAGTACGCACAG", "YES"],
  ["CCGAGTAGGTTATAGGGCATTCAGGCAACGGTGA", "YES"],
  ["TCTATTACTTGAAGGGCAACCGACGAGTCCGTTT", "YES"],
  ["TAGCCTAGGCCATTGGGCCAGTATAGTACGCATC", "NO"],
  ["CAGCCTAGGTCTGGGCCAGTATAGGAGGAACGTT", "NO"],
  ["GCATATAGGTGATACAAGGTGAAAGTCCGATTGT", "NO"],
  ["ATCTGTAGGTTACATCCGGGTCATTCAGGCTATG", "YES"],
  ["ATCTCTAGGTAATAGTTCAGTGAATCCCGAGGAT", "YES"],
  ["CCAGACAGGTGTAAGGTAACTCAGTCTGGTACGC", "YES"],
  ["ATCTCTAGGTAAAGAAAGTTCAGTGAATGCAAAT", "YES"],
  ["CCTACTGGGCCAAAGGTCACTGATTCCAATGCTC", "YES"],
  ["AGTCAAAGTTCAGGACGAGGTAACTTAAAGCACG", "YES"],
  ["CCTAGTAGGTCAAGGTCACACACGCTATAGGTAC", "YES"],
  ["TAGCCTAGGTAATTCAGGGGCCAGTATAGAAAGC", "NO"],
  ["GCTGCTAGGTCAGGTTGGTCAGCTAGCGGGTACG", "NO"],
  ["ATATGCAGGTTAAGGGTCATTCAGGTTGGTTCGC", "YES"]
]}
